B1: ESRRA (parent)
chain: LGVAQRSLPLQDELAFAEDLVLDE

Variants of: B1
METHOD_SUMMARY: protein stability index of a GFP-peptide fusion (GPS, HEK-293T) (PSI 1-6); higher = more stable;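 note: lentivirally expressed fusions sorted by FACS into six bins by GFP to DsRed ratio, PSI derived from sequencing read proportions per bin multiplied by bin number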
TEST_CONDITIONS: c terminus: a fixed tail appended
MEASUREMENT_KIND: protein stability index
Answer using only a numeral; do not append any unit.

QUERY: Output protein stability index of A4E
RESULT: 3.45

QUERY: Output protein stability index of E18R
RESULT: 5.04

QUERY: Output protein stability index of D23K
RESULT: 2.41

QUERY: Output protein stability index of Q5F
RESULT: 1.87

QUERY: Output protein stability index of E18V
RESULT: 3.65

QUERY: Output protein stability index of L20Y
RESULT: 4.67

QUERY: Output protein stability index of L22Q
RESULT: 3.81

QUERY: Output protein stability index of L10K
RESULT: 5.21

QUERY: Output protein stability index of E24N
RESULT: 3.24

QUERY: Output protein stability index of S7D
RESULT: 3.25

QUERY: Output protein stability index of F16N
RESULT: 3.63

QUERY: Output protein stability index of G2R
RESULT: 1.93

QUERY: Output protein stability index of P9R
RESULT: 3.95

QUERY: Output protein stability index of A17H
RESULT: 4.95

QUERY: Output protein stability index of A17N
RESULT: 5.35

QUERY: Output protein stability index of D19A
RESULT: 1.89

QUERY: Output protein stability index of D12F
RESULT: 1.46

QUERY: Output protein stability index of Q11F
RESULT: 4

QUERY: Output protein stability index of G2I
RESULT: 1.89

QUERY: Output protein stability index of E13G
RESULT: 4.81

QUERY: Output protein stability index of F16W
RESULT: 2.45

QUERY: Output protein stability index of D19K
RESULT: 2.49

QUERY: Output protein stability index of Q5N
RESULT: 2.63

QUERY: Output protein stability index of V21R
RESULT: 4.83

QUERY: Output protein stability index of L8C
RESULT: 3.2

QUERY: Output protein stability index of A4Q
RESULT: 3.33

QUERY: Output protein stability index of L8G
RESULT: 3.74

QUERY: Output protein stability index of L14Q
RESULT: 5.27

QUERY: Output protein stability index of L1Q
RESULT: 3.21

QUERY: Output protein stability index of G2C
RESULT: 2.69

QUERY: Output protein stability index of L14P
RESULT: 5.38

QUERY: Output protein stability index of E13H
RESULT: 4.44

QUERY: Output protein stability index of S7P
RESULT: 3.14

QUERY: Output protein stability index of L14S
RESULT: 5.66

QUERY: Output protein stability index of E24S
RESULT: 3.13

QUERY: Output protein stability index of Q5I
RESULT: 2.17

QUERY: Output protein stability index of Q5K
RESULT: 2.39

QUERY: Output protein stability index of G2D
RESULT: 3.02

QUERY: Output protein stability index of V21E
RESULT: 5.31

QUERY: Output protein stability index of D23P
RESULT: 4.49

QUERY: Output protein stability index of Q5E
RESULT: 3.16

QUERY: Output protein stability index of V3C
RESULT: 2.86

QUERY: Output protein stability index of L22M
RESULT: 4.2

QUERY: Output protein stability index of Q11A
RESULT: 3.11

QUERY: Output protein stability index of Q11S
RESULT: 4.37

QUERY: Output protein stability index of D23M
RESULT: 2.01

QUERY: Output protein stability index of E13P
RESULT: 4.71

QUERY: Output protein stability index of P9S
RESULT: 3.49

QUERY: Output protein stability index of L10V
RESULT: 4.64

QUERY: Output protein stability index of Q11I
RESULT: 3.35

QUERY: Output protein stability index of G2M
RESULT: 2.36

QUERY: Output protein stability index of D19F
RESULT: 2.56

QUERY: Output protein stability index of S7F
RESULT: 2.32

QUERY: Output protein stability index of D12W
RESULT: 2.04

QUERY: Output protein stability index of A17K
RESULT: 5.25

QUERY: Output protein stability index of L8H
RESULT: 2.88

QUERY: Output protein stability index of A17E
RESULT: 5.09

QUERY: Output protein stability index of L8Y
RESULT: 1.86

QUERY: Output protein stability index of S7W
RESULT: 1.78

QUERY: Output protein stability index of A4H
RESULT: 2.21

QUERY: Output protein stability index of A4Y
RESULT: 2.1

QUERY: Output protein stability index of L8E
RESULT: 5

QUERY: Output protein stability index of P9C
RESULT: 4.38

QUERY: Output protein stability index of D19I
RESULT: 1.94

QUERY: Output protein stability index of E18H
RESULT: 4.6

QUERY: Output protein stability index of D23W
RESULT: 2.1

QUERY: Output protein stability index of L22N
RESULT: 4.69

QUERY: Output protein stability index of D23G
RESULT: 1.72

QUERY: Output protein stability index of G2V
RESULT: 2.34

QUERY: Output protein stability index of A15P
RESULT: 5.28

QUERY: Output protein stability index of A4I
RESULT: 1.59

QUERY: Output protein stability index of L1T
RESULT: 3.5

QUERY: Output protein stability index of F16E
RESULT: 3.61
